measured-target: Acetylcholinesterase (Mus musculus)
Sequence (P21836 whole entry): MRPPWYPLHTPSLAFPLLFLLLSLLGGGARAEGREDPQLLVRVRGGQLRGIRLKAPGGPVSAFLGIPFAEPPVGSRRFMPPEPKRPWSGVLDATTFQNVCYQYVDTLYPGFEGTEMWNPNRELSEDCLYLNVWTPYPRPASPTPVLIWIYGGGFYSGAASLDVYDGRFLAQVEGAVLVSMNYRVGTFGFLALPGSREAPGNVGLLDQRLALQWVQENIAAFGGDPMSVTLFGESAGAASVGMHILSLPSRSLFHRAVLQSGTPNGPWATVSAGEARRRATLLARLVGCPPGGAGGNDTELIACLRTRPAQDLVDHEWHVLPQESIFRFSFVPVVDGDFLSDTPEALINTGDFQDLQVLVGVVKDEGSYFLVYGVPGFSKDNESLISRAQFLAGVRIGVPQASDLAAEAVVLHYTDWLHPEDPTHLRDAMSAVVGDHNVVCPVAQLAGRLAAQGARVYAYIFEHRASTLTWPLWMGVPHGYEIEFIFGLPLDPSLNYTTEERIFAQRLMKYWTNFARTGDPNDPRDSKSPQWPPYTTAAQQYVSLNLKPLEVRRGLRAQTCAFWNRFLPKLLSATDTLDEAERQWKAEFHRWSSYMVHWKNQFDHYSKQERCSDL
property-label: IC50 (µM)
Write the value in µM as a bare number.

Some solved entries appear below for comparison.
item-smiles: Cc1cccc(NC(=O)Oc2ccc3c(c2)CCCN3Cc2ccccc2)c1
recorded-measurement: 60.2
--
item-smiles: Cc1ccc(NC(=O)Oc2ccc3c(c2)CCCN3Cc2ccc(Cl)cc2Cl)cc1
recorded-measurement: 851
--
item-smiles: O=C(Nc1ccc(F)cc1)Oc1ccc2c(c1)CCCN2Cc1ccc(Cl)cc1Cl
recorded-measurement: 89.4

Problem: Entry O=C(Nc1cccc(Cl)c1)Oc1ccc2c(c1)CCCN2Cc1ccc(Cl)cc1Cl has what IC50?
Result: 211

Problem: Fill in: IC50 of Cc1ccccc1NC(=O)Oc1ccc2c(c1)CCCN2Cc1ccc(Cl)cc1Cl is ___
Result: 2.57

Problem: GET /values?readout=IC50&item= O=C(Nc1ccccc1F)Oc1ccc2c(c1)CCCN2Cc1ccc(Cl)cc1Cl
Result: 2.56

Problem: I am curious: what IC50 value has been reported for Cc1ccccc1NC(=O)Oc1ccc2c(c1)CCCN2Cc1ccccc1 ?
Result: 14.3

Problem: # input compound: COc1ccccc1NC(=O)Oc1ccc2c(c1)CCCN2Cc1ccc(Cl)cc1Cl ; wanted: its IC50
Result: 13.8

Problem: Fill in: IC50 of Cc1cccc(NC(=O)Oc2ccc3c(c2)CCCN3Cc2ccc(Cl)cc2Cl)c1 is ___
Result: 0.7
